Ref: ChEMBL document CHEMBL1201862

Test system: OVCAR-3
Assay name: NCI tumour cell line growth inhibition, 48 h
Calls of active or inactive are those of the source. No stated cut-off is given here; in the data, active = GI50 up to about 1.1 µM and inactive = higher.
Parameter: GI50

compound="CCOC(=O)N1CCC2(CC1)C[C@](C)(C(C)=O)C(C)O2 (stereo partly drawn)" endpoint_value="> 100 µM (inactive)"
compound="N#CC(C#N)=C1CCC2C(=C(C#N)C#N)CCC12 (stereo not drawn)" endpoint_value="> 100 µM (inactive)"
compound="CC1C(c2ccccc2O)c2cc3c(cc2OC1N1CCOCC1)OCO3 (stereo not drawn)" endpoint_value="22.6 µM (inactive)"
compound=COc1cc(C=O)c(-c2cc(OC)c(OC)cc2C=O)cc1OC endpoint_value="> 100 µM (inactive)"
compound=Cc1ccc2c(c1)CN(C(=O)CCC(=O)OCc1ccccc1)c1ccc(C)cc1CN2C(=O)CCC(=O)OCc1ccccc1 endpoint_value="> 100 µM (inactive)"
compound=O=C1CCCC/C1=C/C=C/c1ccccc1 endpoint_value="66.4 µM (inactive)"
compound=O=S(=O)(/C=C/CS(=O)(=O)c1ccccc1)c1ccccc1 endpoint_value="26.5 µM (inactive)"
compound="O=[N+]([O-])c1ccc(Cl)cc1C1ON=C(c2ccccc2)N1C12CC3CC(CC(C3)C1)C2 (stereo not drawn)" endpoint_value="97.7 µM (inactive)"
compound=CC(=O)N(N=O)c1ccc(N(N=O)C(C)=O)cc1 endpoint_value="> 100 µM (inactive)"
compound="O=S(=O)(c1ccc(/N=C2\\NC(c3ccc(O)cc3)(c3ccccc3O)c3ccccc32)cc1)c1ccc(/N=C2/NC(c3ccc(O)cc3)(c3ccccc3O)c3ccccc32)cc1 (stereo not drawn)" endpoint_value="4.74 µM (inactive)"
compound=COc1ccc(/C=C/c2nnc(S)[nH]2)cc1 endpoint_value="> 100 µM (inactive)"
compound="O=c1[nH]c(N/N=C\\C(O)C(O)C(O)C(O)CO)nc2ccccc12 (stereo not drawn)" endpoint_value="> 100 µM (inactive)"
compound="O=C1CC(S(=O)(=O)O)C=C1Nc1cccc(Cl)c1 (stereo not drawn)" endpoint_value="> 100 µM (inactive)"

----------
Tested on: NCI/ADR-RES
Assay name: NCI tumour cell line growth inhibition, 48 h
Active and inactive are the calls of the source. Rule as the data show it: active = GI50 up to about 1.1 µM and inactive = higher.
Possible outcomes: 1 (yes) = active, 0 (no) = inactive

compound="NC(=O)c1ncn2c(=O)n(CCCl)nnc12 [MITOZOLOMIDE]" class="0 (no)"
compound=NNC(=O)CS(=O)(=O)Nc1ncccn1 class="0 (no)"
compound=COC(=O)[C@H](C)N1C(=O)N[C@@H](C(C)C)C1=O class="0 (no)"
compound="O=c1c2ccccc2nc2n1C(c1ccc([N+](=O)[O-])cc1)C2(c1ccccc1)c1ccccc1 (stereo not given)" class="0 (no)"
compound=C[Si](C)(c1ccc(C(=O)O)cc1)c1ccc(C(=O)O)cc1 class="0 (no)"
compound="CC[n+]1c(-c2ccccc2)c2cc(N)ccc2c2ccc(N)cc21 [HOMIDIUM BROMIDE]" class="0 (no)"
compound=CSC(SC)=C1C(=O)N(c2ccccc2)N=C1C class="0 (no)"
compound="CC1=CCS(=O)(=O)C1C(O)C1=C(C)CCCC1(C)C (stereo not given)" class="0 (no)"
compound="NC1=NC(c2ccc(Cl)cc2)N(c2ccc(S(=O)(=O)Nc3ncccn3)cc2)C(N)=N1 (stereo not given)" class="0 (no)"
compound=Cc1sc2nc(-c3ccc(Cl)c([N+](=O)[O-])c3)c(/C=N/NC(=N)N)n2c1C class="0 (no)"
compound=CC(C)(O)/C=C\P(=O)(O)O class="0 (no)"
compound="C1CCN(CCC2CCCCN2)CC1 (stereo not given)" class="0 (no)"
compound=Cc1ccc2c(c1)CN(C(=O)CCC(=O)OCc1ccccc1)c1ccc(C)cc1CN2C(=O)CCC(=O)OCc1ccccc1 class="0 (no)"
compound=CCOP(=O)(OCC)C(C)(C)OC(=O)NC#N class="0 (no)"
compound=C[C@H]1O[C@@H](O[C@H]2[C@@H](O)C[C@H](O[C@H]3[C@@H](O)C[C@H](O[C@H]4CC[C@@]5(C)[C@H](CC[C@@H]6[C@@H]5CC[C@]5(C)[C@@H](C7=CC(=O)OC7)[C@@H](O)C[C@]65O)C4)O[C@@H]3C)O[C@@H]2C)C[C@H](O)[C@@H]1O class="1 (yes)"
compound=CN(C)c1ccc(/C=N/NC2=N/C(=C\c3ccco3)C(=O)N2)cc1 class="0 (no)"
compound=O=C1N=C2SC(=S)N=C(S)N2NC12c1ccccc1-c1ccccc12 class="0 (no)"
compound=CC(C)=CCNc1nc(Cl)nc2[nH]cnc12 class="0 (no)"
compound="COC1C(=O)N(SC)C1c1ccccc1Cl (stereo not given)" class="0 (no)"
compound=Cc1ccc2c(c1C)C(=O)/C(=C/c1cccc(C)c1C(=O)O)C2 class="0 (no)"
